# system.name: T1, factor VIIIa A1/A3C1C2 dimer, wild type (human, UniProt P00451 20-391; P00451 1709-2351)
# T1 sequence 1: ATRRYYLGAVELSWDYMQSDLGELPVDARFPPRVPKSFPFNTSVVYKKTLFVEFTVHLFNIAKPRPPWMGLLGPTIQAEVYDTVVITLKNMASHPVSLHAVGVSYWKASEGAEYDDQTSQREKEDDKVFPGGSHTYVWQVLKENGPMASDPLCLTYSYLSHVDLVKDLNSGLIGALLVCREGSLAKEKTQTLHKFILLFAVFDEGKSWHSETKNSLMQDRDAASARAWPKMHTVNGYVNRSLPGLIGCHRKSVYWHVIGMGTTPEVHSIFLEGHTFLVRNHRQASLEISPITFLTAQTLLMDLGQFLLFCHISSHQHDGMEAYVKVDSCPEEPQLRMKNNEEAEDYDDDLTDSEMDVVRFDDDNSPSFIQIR
# T1 sequence 2: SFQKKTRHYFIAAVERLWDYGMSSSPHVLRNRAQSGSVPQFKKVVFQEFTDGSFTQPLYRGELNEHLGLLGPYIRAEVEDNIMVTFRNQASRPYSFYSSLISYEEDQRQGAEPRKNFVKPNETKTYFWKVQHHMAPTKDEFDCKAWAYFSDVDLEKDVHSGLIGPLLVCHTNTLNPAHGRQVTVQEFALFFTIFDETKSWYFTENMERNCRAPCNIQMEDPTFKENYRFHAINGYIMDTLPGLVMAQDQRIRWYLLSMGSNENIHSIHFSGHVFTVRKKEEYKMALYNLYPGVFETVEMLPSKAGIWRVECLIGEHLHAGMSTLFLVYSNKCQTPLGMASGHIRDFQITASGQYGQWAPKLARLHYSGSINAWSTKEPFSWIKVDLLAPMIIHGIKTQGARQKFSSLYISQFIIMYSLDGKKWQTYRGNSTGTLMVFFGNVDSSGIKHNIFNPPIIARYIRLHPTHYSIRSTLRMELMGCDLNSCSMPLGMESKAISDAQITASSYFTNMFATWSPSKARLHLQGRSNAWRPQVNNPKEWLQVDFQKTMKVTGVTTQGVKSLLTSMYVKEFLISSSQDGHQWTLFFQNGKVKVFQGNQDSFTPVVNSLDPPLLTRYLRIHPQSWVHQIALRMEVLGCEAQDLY
# procedure.text: cell-based or functional assay
result.type: Decay rate, Factor VIIIa (1.5 nM factor VIIIa, factor IXa absent) (min⁻¹)
// note: answer is a bare numeric in min⁻¹

Notebook: factor VIIIa A2 subunit, Asp519Ala (other) SVAKKHPKTWVHYIAAEEEDWDYAPLVLAPDDRSYKSQYLNNGPQRIGRKYKKVRFMAYTDETFKTREAIQHESGILGPLLYGEVGDTLLIIFKNQASRPYNIYPHGITDVRPLYSRRLPKGVKHLKDFPILPGEIFKYKWTVTVEAGPTKSDPRCLTRYYSSFVNMERDLASGLIGPLLICYKESVDQRGNQIMSDKRNVILFSVFDENRSWYLTENIQRFLPNPAGVQLEDPEFQASNIMHSINGYVFDSLQLSVCLHEVAYWYILSIGAQTDFLSVFFSGYTFKHKMVYEDTLTLFPFSGETVFMSMENPGLWILGCHNSDFRNRGMTALLKVSSCDKNTGDYYEDSYEDISAYLLSKNNAIEPR , Decay rate, Factor VIIIa (1.5 nM factor VIIIa, factor IXa absent) read as 0.0898

Notebook: factor VIIIa A2 subunit, D519V and E665V (other) SVAKKHPKTWVHYIAAEEEDWDYAPLVLAPDDRSYKSQYLNNGPQRIGRKYKKVRFMAYTDETFKTREAIQHESGILGPLLYGEVGDTLLIIFKNQASRPYNIYPHGITDVRPLYSRRLPKGVKHLKDFPILPGEIFKYKWTVTVEVGPTKSDPRCLTRYYSSFVNMERDLASGLIGPLLICYKESVDQRGNQIMSDKRNVILFSVFDENRSWYLTENIQRFLPNPAGVQLEDPEFQASNIMHSINGYVFDSLQLSVCLHEVAYWYILSIGAQTDFLSVFFSGYTFKHKMVYVDTLTLFPFSGETVFMSMENPGLWILGCHNSDFRNRGMTALLKVSSCDKNTGDYYEDSYEDISAYLLSKNNAIEPR , Decay rate, Factor VIIIa (1.5 nM factor VIIIa, factor IXa absent) read as 0.0198

Values compiled from patent US20090118184A1.
